# Tested on: RXF-631 renal
# protocol notes: NCI tumour cell line growth inhibition, 48 h
test readout: TGI

// solved cases for TGI follow
{"molecule": "CN(C)C(=S)/N=c1\\ssc(=S)n1C1CCCCC1", "experimental result": "40.8 µM"}
{"molecule": "CN(C)CC1CCC/C1=N/OC(=O)c1ccccc1 (stereo not given)", "experimental result": "> 100 µM"}
{"molecule": "O=c1[nH]c2cc(Cl)ccc2nc1/C(=N\\Nc1ccccc1)C(O)c1ccc(Cl)c(Cl)c1 (stereo not given)", "experimental result": "> 100 µM"}
{"molecule": "O=c1[nH]c(-c2ccccc2)nc2cc(Cl)ccc12", "experimental result": "> 100 µM"}

Sample `CC(=O)OCCOCNC(=S)N/N=C/c1ccc([N+](=O)[O-])o1` , system: RXF-631 renal. Its TGI is > 100 µM

Data provenance is PubChem BioAssay (NCI).
